I'd appreciate it if you could supply IC50 values for the items below.
molecular target: HCV polymerase (NS5B) type 1b (Hepatitis C virus genotype 1b, UniProt P26663); construct: a region encoding NS5B (J Virol 1991 March, 65(3), 1105-13, 544 amino acids after deletion of 47 amino acids on the C-terminal); 6xHis (C); made in house; host or cells: Escherichia coli; experiment: Assay of enzyme (HCV polymerase) inhibitory activity, type 1b enzyme; type: biochemical, HCV BK strain (type 1b); details: HCV polymerase inhibitory activity (IC50), 1b, type 1b enzyme 0.5 μg/ml, 25° C., 60 min
Where a name gives a salt, the structure may show the parent alone.

Which IC50 reading was recorded for the compound CN(C)c1ccc(CNC(=O)[C@H]2CN(C(=O)CN)CCN2S(=O)(=O)c2ccc(C(F)(F)F)cc2)cc1 [Example 262, dihydrochloride] ? > 1000 nM

Which IC50 reading was recorded for the compound CC(C)c1ccc(CNC(=O)[C@H]2CN(C3=C(c4ccccc4)C(=O)NC3=O)CCN2S(=O)(=O)c2ccc(C(F)(F)F)cc2)cc1 [Example 148] ? > 1000 nM

Which IC50 reading was recorded for the compound CC(C)(C)c1ccc(CNC(=O)[C@H]2CN(c3nc4c(s3)C(=O)NCC4)CCN2S(=O)(=O)c2ccc(OC(F)(F)F)cc2)cc1 [Example 578] ? < 100 nM

----------
biological target: HCV polymerase (NS5B) type 1a (Hepatitis C virus genotype 1a); construct: made in house; host or cells: Escherichia coli (by the 'similar method' of the 1b enzyme); assay: Assay of enzyme (HCV polymerase) inhibitory activity, type 1a enzyme; format: biochemical, HCV type 1a (cloned from the blood of patients); details: HCV polymerase inhibitory activity (IC50), 1a, type 1a enzyme 1.5 μg/ml, 25° C., 60 min
Endpoint: IC50

Which IC50 reading was recorded for the compound CC(=O)N1CCN(S(=O)(=O)c2ccc(C(C)C)cc2)C(C(=O)NCc2cccc(Cl)c2)C1 (centres unmarked) ? > 1000 nM

Which IC50 reading was recorded for the compound `CCCc1ccc(CNC(=O)[C@H]2CN(c3ccc(C(N)=O)nn3)CCN2S(=O)(=O)c2ccc(OC(F)(F)F)cc2)cc1` ? < 100 nM

Which IC50 reading was recorded for the compound `COc1ccc(CNC(=O)[C@H]2CN(C(C)=O)CCN2S(=O)(=O)c2ccc(OC(F)(F)F)cc2)cc1` ? 100 to 1000 nM

Which IC50 reading was recorded for the compound `CC(=O)N1CCN(S(=O)(=O)c2ccc(C(C)C)cc2)[C@@H](C(=O)NCc2ccc(C(C)(C)CO)cc2)C1` ? > 1000 nM

Which IC50 reading was recorded for the compound COc1ccc(CNC(=O)C2CN(C(C)=O)CCN2S(=O)(=O)c2ccc(C(C)C)cc2)cc1OC (centres unmarked) ? > 1000 nM

Which IC50 reading was recorded for the compound CC(=O)N1CCN(S(=O)(=O)c2cccc(Cl)c2)C(C(=O)NCc2ccc(C(F)(F)F)cc2)C1 (centres unmarked) ? > 1000 nM

Which IC50 reading was recorded for the compound `CC(C)c1ccc(CNC(=O)[C@H]2CN(C(=O)Nc3nnco3)CCN2S(=O)(=O)c2ccc(C(F)(F)F)cc2)cc1` ? 100 to 1000 nM

Which IC50 reading was recorded for the compound CC(C)c1ccc(CNC(=O)[C@H]2CN(C(=O)Nc3ccncc3)CCN2S(=O)(=O)c2ccc(C(F)(F)F)cc2)cc1 [Example 3] ? < 100 nM

Which IC50 reading was recorded for the compound CC(C)c1ccc(S(=O)(=O)N2CCN(C(=O)C(C)(C)O)CC2C(=O)NCc2ccc(C(F)(F)F)cc2)cc1 (centres unmarked) ? > 1000 nM

Which IC50 reading was recorded for the compound `Cc1nnc(NC(=O)N2CCN(S(=O)(=O)c3ccc(OC(F)(F)F)cc3)[C@@H](C(=O)NCc3ccc(C(F)(F)C(F)(F)F)cc3)C2)s1` ? > 1000 nM

Which IC50 reading was recorded for the compound CC(=O)N1CCN(S(=O)(=O)c2ccc(C(C)C)cc2)C(C(=O)NCc2cccc(C(F)(F)F)c2)C1 (centres unmarked) ? > 1000 nM

Which IC50 reading was recorded for the compound `COc1nsc(N2CCN(S(=O)(=O)c3ccc(OC(F)(F)F)cc3)[C@@H](C(=O)NCc3ccc(C(C)(C)C)cc3)C2)n1` ? < 100 nM

Which IC50 reading was recorded for the compound `CCC(F)(F)c1ccc(CNC(=O)[C@H]2CN(C(=O)C(C)(C)C)CCN2S(=O)(=O)c2ccc(OC(F)(F)F)cc2)cc1` ? > 1000 nM

Which IC50 reading was recorded for the compound `CCCc1ccc(CNC(=O)[C@H]2CN(c3ccc(O)nn3)CCN2S(=O)(=O)c2ccc(OC(F)(F)F)cc2)cc1` ? < 100 nM
